Test system: UMC-11
Test: relative viability (nuclei count vs DMSO), 5 days (fraction); higher = more cells survive
Conditions: first compound 1 µM
endpoint: relative viability
Returns: the value as a bare number; no unit string appended.

molecule | relative viability
NC(=O)Nc1cc(-c2cccc(F)c2)sc1C(=O)N[C@H]1CCCNC1 [AZD7762] + Cc1nc(Nc2ncc(C(=O)Nc3c(C)cccc3Cl)s2)cc(N2CCN(CCO)CC2)n1 [Dasatinib] (partner 0.075 µM) | 0.215

## Task Please indicate relative viability recorded for NC(=O)Nc1cc(-c2cccc(F)c2)sc1C(=O)N[C@H]1CCCNC1 [AZD7762] + C[C@]1(O)C[C@@H](c2nc(-c3ccc4ccc(-c5ccccc5)nc4c3)c3c(N)nccn32)C1 [Linsitinib] (partner 1 µM)
## Result 0.551

## Task Please report relative viability for the following molecule: NC(=O)Nc1cc(-c2cccc(F)c2)sc1C(=O)N[C@H]1CCCNC1 [AZD7762] + C[C@@H](Oc1cc(-c2cnn(C3CCNCC3)c2)cnc1N)c1c(Cl)ccc(F)c1Cl [Crizotinib] (partner 1 µM)
## Result 0.142

###

Test system: H3255
Assay: relative viability (nuclei count vs DMSO), 5 days (fraction); higher = more cells survive
Conditions: first compound 1.265 µM
relative viability by entry:
Write the value as a bare number.

Would you please look over these solved cases?
molecule | relative viability
O=C(O)c1ccc(-c2c[nH]c3ncc(-c4ccccc4)cc23)cc1C1CCCC1 + CC(=O)Nc1cccc(-n2c(=O)n(C3CC3)c(=O)c3c(Nc4ccc(I)cc4F)n(C)c(=O)c(C)c32)c1 [Trametinib] (partner 0.02 µM) | 0.625
O=C(O)c1ccc(-c2c[nH]c3ncc(-c4ccccc4)cc23)cc1C1CCCC1 + CS(=O)(=O)N1CCN(Cc2cc3nc(-c4cccc5[nH]ncc45)nc(N4CCOCC4)c3s2)CC1 [Pictilisib] (partner 1 µM) | 0.462
O=C(O)c1ccc(-c2c[nH]c3ncc(-c4ccccc4)cc23)cc1C1CCCC1 + C[C@@H](Oc1cc(-c2cnn(C3CCNCC3)c2)cnc1N)c1c(Cl)ccc(F)c1Cl [Crizotinib] (partner 1 µM) | 0.9

## Task Dear colleague, please send me the reported relative viability for O=C(O)c1ccc(-c2c[nH]c3ncc(-c4ccccc4)cc23)cc1C1CCCC1 + CS(=O)(=O)CCNCc1ccc(-c2ccc3ncnc(Nc4ccc(OCc5cccc(F)c5)c(Cl)c4)c3c2)o1 [Lapatinib] (partner 2 µM) when you can.
## Result 0.275

## Task // Input: O=C(O)c1ccc(-c2c[nH]c3ncc(-c4ccccc4)cc23)cc1C1CCCC1 + Cc1nc(Nc2ncc(C(=O)Nc3c(C)cccc3Cl)s2)cc(N2CCN(CCO)CC2)n1 [Dasatinib] (partner 0.075 µM) . Output its relative viability only.
## Result 0.473

## Task Tell us which relative viability value is on record for O=C(O)c1ccc(-c2c[nH]c3ncc(-c4ccccc4)cc23)cc1C1CCCC1 + Cc1nc(NC(=O)N2CCC[C@H]2C(N)=O)sc1-c1ccnc(C(C)(C)C(F)(F)F)c1 [Alpelisib] (partner 2 µM)
## Result 0.769

###

Tested on: NCI-H2170
Test: relative viability (nuclei count vs DMSO), 5 days (fraction); higher = more cells survive
Conditions: first compound 0.253 µM
relative viability by entry:
Answer with the value's number alone.

## Task Please look at this molecule and report its relative viability: C=C1C(=O)O[C@@H](CCCCCCCC)[C@@H]1C(=O)O [C-75] + N=C(N)NC(=N)NCCc1ccccc1 [Phenformin] (partner 250 µM)
## Result 0.453

## Task Tell me relative viability reported for Oc1nc(-c2ccc(C(F)(F)F)cc2)nc2c1CSCC2 [XAV939] + CC(=O)Nc1cccc(-n2c(=O)n(C3CC3)c(=O)c3c(Nc4ccc(I)cc4F)n(C)c(=O)c(C)c32)c1 [Trametinib] (partner 0.02 µM)
## Result 0.833

## Task Give the reported relative viability for this molecule. Oc1nc(-c2ccc(C(F)(F)F)cc2)nc2c1CSCC2 [XAV939] + N=C(N)NC(=N)NCCc1ccccc1 [Phenformin] (partner 250 µM)
## Result 0.394
